- Test system: Plasmodium berghei
- RUN DESCRIPTION: Screen against P. berghei liver stage (PbLuc), transformed with Luciferase, at 10uM
- Assay type: functional, HepG2
- REPORTED CONDITIONS: tested at 10 uM
Screen size: about 69,000 compounds; about 8,600 (12%) showed an effect of 50% or more. The entries come from a sample that favours strong results as a whole.
This listing pairs compounds with measured INHIBITION.
Report the value in % with no unit label.

Recorded results for 5 compounds are shown here.
CCc1[nH]c2c(CNc3cncc(C(=O)OC)n3)cc(C)cc2c1C ... 45
CCc1[nH]c2c(CNc3nc(C)cc(NC)n3)cc(C)cc2c1C ... 85.1
COc1ccccc1NC(=O)N(CCO)Cc1ccsc1 ... 77.6
COc1cc2c(c(OC)c1OC)CCN(CCN1CCCCC1)CC2 ... 54.8
CCc1[nH]c2c(CNc3cc(C)nc(NC)n3)cc(C)cc2c1C ... 87.9

stdin: Quick one: INHIBITION of CCOc1ccccc1NC(=O)N(CCO)Cc1ccsc1 ?
stdout: -8.51

stdin: Likewise for COc1cc2c(c(OC)c1OC)CCN(CCn1cncn1)CC2 ?
stdout: 52.6

stdin: Likewise for COc1ccc(CN2CCn3cncc3C2)cc1Cn1cncn1 ?
stdout: 16.1

###

This listing pairs molecules with measured INHIBITION.
- Tested on: Plasmodium berghei
- RUN DESCRIPTION: Screen against P. berghei liver stage (PbLuc), transformed with Luciferase, at 10uM
- Assay type: functional, HepG2
- REPORTED CONDITIONS: tested at 10 uM
The whole screen tested about 69,000 compounds, of which about 8,600 (12%) showed an effect of 50% or more. This is one part of a sample in which strong results are shown more often than they occur.
Report the value in % with no unit label.

Recorded results for 5 molecules are shown here.
Cc1ccc(C(=O)N2CCCCC2CN(C)C)cc1 (configuration not stated) ... 21.8
Cc1nn(C)c2nc(N3CCNC(=O)C3C(C)C)sc12 (configuration not stated) ... -47.5
Cc1nn(C)c2nc(N3CCCC3c3nccs3)sc12 (configuration not stated) ... 49.9
CNc1ncccc1C(=O)N1CCN(Cc2ccc(C)cc2)C(=O)C1C (configuration not stated) ... -11.5
COCCCC1CCCCN1C(=O)c1ccc(SCCO)cc1 (configuration not stated) ... 52.6

stdin: Quick one: INHIBITION of CC(C)CN(Cc1ccc(-n2cncn2)cc1)Cc1ccccn1 ?
stdout: 34.9

stdin: Likewise for Cc1nn(C)c2nc(N3CCCCC3c3nccs3)sc12 (configuration not stated) ?
stdout: 28.7

###

- Tested on: Plasmodium berghei
- RUN DESCRIPTION: Screen against P. berghei liver stage (PbLuc), transformed with Luciferase, at 10uM
- Format: functional, HepG2
- REPORTED CONDITIONS: tested at 10 uM
The campaign covered roughly 69,000 compounds. About 8,600 (12%) showed an effect of 50% or more. For the sample, strong results were picked, then their nearest neighbours and some compounds at random.
OBSERVED PROPERTY: INHIBITION (%)
Report the value in % with no unit label.

Recorded results for 5 compounds are shown here.
Cn1c(N2CCOCC2)nc2cc(C(=O)NCc3cccnc3)ccc21 ... 48.2
CC(C)CCn1[nH]c(CNc2ccc(Cl)cc2)nc1=O ... 40
CN1CCCN(C(=O)c2cccn2-c2ccc3c(c2)OCCO3)CC1 ... 6.99
O=C(NCc1cccc(Cl)c1)C1=NOC2(CCNC2)C1 (stereo unspecified) ... 21.5
COc1ccccc1CC(=O)NC(C)c1nc2cccnc2n1C(C)C (stereo unspecified) ... -29.8

stdin: Quick one: INHIBITION of CN(CCNC(=O)c1cnc(-c2ccccc2)nc1)S(C)(=O)=O ?
stdout: 57.1

stdin: Likewise for COc1ccc(CC(=O)NC(C)c2nc3cccnc3n2C(C)C)cc1 (stereo unspecified) ?
stdout: 90.5

stdin: Likewise for CSc1ncccc1C(=O)N1C[C@@H]2CC[C@H]1CN(c1ncccn1)C2 ?
stdout: 15.1

stdin: Likewise for CN(CCNC(=O)c1cnc(-c2ccncc2)nc1)S(C)(=O)=O ?
stdout: 25.1

stdin: Likewise for COc1ccc(CSc2nnc(N)n2C2CC2)cc1F ?
stdout: -16.3

stdin: Likewise for CCN(CC)CCNC(=O)c1cnc(-c2ccccc2)nc1 ?
stdout: -8.07

Every entry's value here was drawn from ChEMBL document CHEMBL4513216.
